Tested on: PXR homodimer (NR concentration 270 nM)
Assay: PBM binding z-score (relative to random genomic background probes); higher = stronger binding; sequences stand for … in GC…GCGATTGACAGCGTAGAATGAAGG
Each entry below carries its recorded PBM binding z-score.

CATCCAAGGTCAGAGAGGTCAGTGAATGCCGAGT	12
ATATGTAGGTTATCGGGTCTTTCAGTTTGCGCAT	1.43

The recorded PBM binding z-score for "CCTGCTAGGTCCTGGTCAGCTAATCTACAGTATG" is -0.864

Entry "AATACAGGGTCACTAGGCCAGAATAGGTACGAAT" , PBM binding z-score reported as 0.787

For reference, reported PBM binding z-score for "TCTATTAGTTGAAGGGCAACGGACGAGTCCGTTT" stands at 1.18

Measured PBM binding z-score of "ATATGTAGGGTATCGGGTCATTCAGTTTGCGCAT" : 7.07

Reported PBM binding z-score for "CCTACTAGGCCATCAGGTCATTGATATCAACGTT" was 1.66

Memo: "CCTAGCAGGCCAATCTGGGTCATTCAAGGCTTGA" , reported PBM binding z-score: -0.53

The sequence identified as "ACTATTAGTTGAGACGAGGGCATCCGATAGGTTG" registered its PBM binding z-score at 0.926

Entry under test: "AGTCAAAGTTCATCTAGGTAACCTAAGATATGCT" . Its PBM binding z-score was 6.67

Form: sequence = "TTACCAAGATGAAGGTCGTTGATCCCTCTGTAGA" ; PBM binding z-score = -0.0787
